All values here come from PubChem BioAssay (NCI).

tested on: NCI-H460 lung; experiment: NCI tumour cell line growth inhibition, 48 h
The reader will find reported TGI values listed item by item below.

{"columns": ["compound", "scale.unit", "value.operator", "TGI"],
 "data": [
  ["O=C(Nc1ccccc1F)c1ccc(NC2=C(Cl)C(=O)N(Cc3ccccc3)C2=O)cc1", "µM", "=", 19.3],
  ["CC(C)(Oc1ccc(C(=O)c2ccc(Cl)cc2)cc1Cl)C(=O)N1CCN(c2ccccc2)CC1", "µM", ">", 100],
  ["Clc1cccc(N=C/C=C/Nc2cccc(Cl)c2)c1", "µM", "=", 35.2],
  ["COc1cc(-c2coc3c(OC)c(OC4OC(COC5OC(C)C(O)C(O)C5O)C(O)C(O)C4O)c(OC)c(O)c3c2=O)cc(C)c1O (stereo unspecified)", "µM", "=", 82.6],
  ["COC(=O)c1ccccc1N=Cc1ccc(N(CCC#N)S(=O)(=O)c2ccccc2)cc1", "µM", ">", 100],
  ["COc1ccc(-c2[nH]ncc2-c2cc(OC)c(OC)c(OC)c2)cc1", "µM", "=", 1.3]
]}

---

system: EKVX NSCLC; assay: NCI tumour cell line growth inhibition, 48 h
Peptide text beside a SMILES is read from it. * marks the point of attachment. OSu = O=C1CCC(=O)N1O*; OBn = c1ccc(CO*)cc1; Bn = c1ccc(C*)cc1
// TGI lookup, one value per entry
quantity.name: TGI

{"columns": ["molecule", "quantity.name", "recorded.value"],
 "data": [
  ["CCOC(=O)C12C(=O)CCN1CCc1ccccc1C2C (stereo unspecified)", "TGI", "> 100 µM"],
  ["O=[N+]([O-])c1ccc(-[n+]2ccc3ccccc3c2)c([N+](=O)[O-])c1", "TGI", "19.4 µM"],
  ["COC(=O)c1ccccc1N=Cc1ccc(N(CCC#N)S(=O)(=O)c2ccccc2)cc1", "TGI", "> 100 µM"],
  ["C/C(=C/c1c(C)[nH]c(=O)[nH]c1=O)C(=O)O", "TGI", "> 1380 µM"],
  ["COc1cccc2c1C(=O)c1c(O)c3c(c(O)c1C2=O)C[C@@](O)(/C(C)=N\\O)C[C@@H]3OC1CC(N)C(O)C(C)O1 (stereo partly specified)", "TGI", "19.5 µM"],
  ["Cc1[nH]c(=O)[nH]c(=O)c1C(=O)N(CCO)Cc1ccccc1", "TGI", "> 100 µM"],
  ["C=C(C(=O)OC)[C@@H]1C[C@@H](O)[C@]2(C)CC/C=C(\\C)CCC[C@H](C)[C@H](O)C1O2", "TGI", "> 100 µM"],
  ["Cc1ccc(C2(c3ccc(C)c(O)c3C)CCN(C)CC2)c(C)c1O", "TGI", "> 100 µM"],
  ["CC(C)CC(NC(=O)C(N)CCC(=O)OCc1ccccc1)C(=O)NC(COCc1ccccc1)C(=O)NC(Cc1ccccc1)C(=O)ON1C(=O)CCC1=O (stereo unspecified) (H-E(OBn)LS(Bn)F-OSu; configuration not given here)", "TGI", "> 100 µM"],
  ["CC(CC(C)(C)[N+](C)(C)C)[N+](C)(C)C (stereo unspecified)", "TGI", "> 100 µM"],
  ["CCCN(CCC)c1c([N+](=O)[O-])cc(C(=O)N(C)C)cc1[N+](=O)[O-]", "TGI", "> 100 µM"],
  ["O=C1/C(=C2\\SCC(=O)N2c2ccccc2)SC(=S)N1c1ccccc1", "TGI", "82 µM"],
  ["Cc1cnc2[nH]c(-c3cccc(Cl)c3)cc(=O)c2c1", "TGI", "> 100 µM"],
  ["Nc1ccc(-c2nc3cc(F)ccc3s2)cc1", "TGI", "> 46.6 µM"],
  ["O=[N+]([O-])c1ccc(Cl)cc1N/N=C/c1cccs1", "TGI", "> 100 µM"],
  ["CC(C)[C@@H](CS(=O)(=O)C(C)C)N1C(=O)[C@@](C)(CC(=O)O)C[C@H](c2cccc(Cl)c2)[C@H]1c1ccc(Cl)cc1", "TGI", "> 100 µM"]
]}
